Experiment: Study HMI116787: single ascending dose, food effect and RTV boosting, SDD PiB, healthy subjects
Assay type: in vivo, human
Conditions: human, plasma, oral; single 50 mg SDD PiB, fasted, without ritonavir, Study HMI116787; median (range)
attribute-measured: Tmax (h)

entry-smiles	unit-annotation	reported-value
CC(C)C1=C2[C@H]3CC[C@@H]4[C@@]5(C)CC[C@H](OC(=O)CC(C)(C)C(=O)O)C(C)(C)[C@@H]5CC[C@@]4(C)[C@]3(C)CC[C@@]2([C@@H](O)CN(CCN(C)C)Cc2ccc(Cl)cc2)CC1=O	h	2.02

----------
Experiment: Study 200912: single dose 100-200 mg, SDD versus nonmicronized API PiB, healthy subjects
Type: in vivo, human
Conditions: human, plasma, oral, 20 mg, single 20 mg API PiB, fasted, with ritonavir (predosing 10 days), Study 200912; median (range)

molecule	Tmax / h
CC(C)C1=C2[C@H]3CC[C@@H]4[C@@]5(C)CC[C@H](OC(=O)CC(C)(C)C(=O)O)C(C)(C)[C@@H]5CC[C@@]4(C)[C@]3(C)CC[C@@]2([C@@H](O)CN(CCN(C)C)Cc2ccc(Cl)cc2)CC1=O [GSK2838232]	5.01

----------
Experiment: Study HMI116787: single ascending dose, food effect and RTV boosting, SDD PiB, healthy subjects
Type: in vivo, human
Details: human, plasma, oral; single 50 mg SDD PiB, fasted, without ritonavir, Study HMI116787; median (range); read-out: C24

entry-smiles	concentration at 24 h, ng/mL
CC(C)C1=C2[C@H]3CC[C@@H]4[C@@]5(C)CC[C@H](OC(=O)CC(C)(C)C(=O)O)C(C)(C)[C@@H]5CC[C@@]4(C)[C@]3(C)CC[C@@]2([C@@H](O)CN(CCN(C)C)Cc2ccc(Cl)cc2)CC1=O	3.11

----------
Assay: Study 204953 Part 2: repeat dosing for 11 days with RTV QD or 200 mg BID unboosted
Assay type: in vivo, human
Conditions: human, plasma, oral, 200 mg, Study Day 11, 200 mg bid without RTV (capsules), τ = 12 hours, Study 204953; geometric mean (95% CI); read-out: AUC(0‐τ)
attribute-measured: AUC (ng·h/mL)

entry-smiles	reported-value
CC(C)C1=C2[C@H]3CC[C@@H]4[C@@]5(C)CC[C@H](OC(=O)CC(C)(C)C(=O)O)C(C)(C)[C@@H]5CC[C@@]4(C)[C@]3(C)CC[C@@]2([C@@H](O)CN(CCN(C)C)Cc2ccc(Cl)cc2)CC1=O	742

----------
Assay: Study 200912: single dose 100-200 mg, SDD versus nonmicronized API PiB, healthy subjects
Format: in vivo, human
Conditions: human, plasma, oral, 200 mg, single 200 mg SDD PiB, fasted, without ritonavir, Study 200912; median (range); read-out: C24
Procedure: This was a double‐blind, randomized, placebo‐controlled, single‐dose escalation study to investigate the safety, tolerability, and PK of higher single doses of GSK2838232 (Part A) and to evaluate the relative bioavailability of the SDD and crystalline Active Pharmaceutical Ingredient (API) of GSK2838232 (Part B) in healthy subjects dosed as PiB. […] Extracts were analyzed using HPLC (Shimadzu, Nexera, 30 series) and tandem mass spectrometry detection (HPLC‐MS/MS). […]

compound	concentration at 24 h [ng/mL]
CC(C)C1=C2[C@H]3CC[C@@H]4[C@@]5(C)CC[C@H](OC(=O)CC(C)(C)C(=O)O)C(C)(C)[C@@H]5CC[C@@]4(C)[C@]3(C)CC[C@@]2([C@@H](O)CN(CCN(C)C)Cc2ccc(Cl)cc2)CC1=O [GSK2838232]	5.18

----------
Assay: Study 204953 Part 2: repeat dosing for 11 days with RTV QD or 200 mg BID unboosted
Assay type: in vivo, human
Conditions: human, plasma, oral, 200 mg, Study day 1, 200 mg QD + RTV (capsules), Study 204953; geometric mean (95% CI)

entry-smiles	Cmax (ng/mL)
CC(C)C1=C2[C@H]3CC[C@@H]4[C@@]5(C)CC[C@H](OC(=O)CC(C)(C)C(=O)O)C(C)(C)[C@@H]5CC[C@@]4(C)[C@]3(C)CC[C@@]2([C@@H](O)CN(CCN(C)C)Cc2ccc(Cl)cc2)CC1=O	75

----------
Test: Study 204953 Part 2: repeat dosing for 11 days with RTV QD or 200 mg BID unboosted
Type: in vivo, human
Conditions: human, plasma, oral, 200 mg, Study Day 11, 200 mg bid without RTV (capsules), Study 204953; geometric mean (95% CI); read-out: t½ (converted)
attribute-measured: half-life (h)

entry-smiles	reported-value
CC(C)C1=C2[C@H]3CC[C@@H]4[C@@]5(C)CC[C@H](OC(=O)CC(C)(C)C(=O)O)C(C)(C)[C@@H]5CC[C@@]4(C)[C@]3(C)CC[C@@]2([C@@H](O)CN(CCN(C)C)Cc2ccc(Cl)cc2)CC1=O	19.4

----------
Experiment: Study HMI116787: single ascending dose, food effect and RTV boosting, SDD PiB, healthy subjects
Type: in vivo, human
Settings: human, plasma, oral; single 20 mg SDD PiB, fasted, without ritonavir, Study HMI116787; geometric mean (95% CI)
Protocol: This study was a first‐in‐human, double‐blind, randomized, placebo‐controlled, single dose escalation study of GSK2838232 in healthy subjects conducted in two sequential cohorts with four dosing visits in each cohort. […] Extracts were analyzed using HPLC (Shimadzu, Nexera, 30 series) and tandem mass spectrometry detection (HPLC‐MS/MS). […] The lower limit of quantification (LLQ) was 0.5 ng/mL, using a 50 μL aliquot of K2EDTA acidified plasma. The higher limit of quantification (HLQ) was 500 ng/mL. […]
attribute-measured: Cmax

entry-smiles	attribute-measured	reported-value
CC(C)C1=C2[C@H]3CC[C@@H]4[C@@]5(C)CC[C@H](OC(=O)CC(C)(C)C(=O)O)C(C)(C)[C@@H]5CC[C@@]4(C)[C@]3(C)CC[C@@]2([C@@H](O)CN(CCN(C)C)Cc2ccc(Cl)cc2)CC1=O	Cmax	8.09 ng/mL

----------
Assay: Study HMI116787: single ascending dose, food effect and RTV boosting, SDD PiB, healthy subjects
Assay type: in vivo, human
Settings: human, plasma, oral; single 100 mg SDD PiB, fasted, without ritonavir, Study HMI116787; geometric mean (95% CI); read-out: t½ (converted)
Protocol: This study was a first‐in‐human, double‐blind, randomized, placebo‐controlled, single dose escalation study of GSK2838232 in healthy subjects conducted in two sequential cohorts with four dosing visits in each cohort. […] Extracts were analyzed using HPLC (Shimadzu, Nexera, 30 series) and tandem mass spectrometry detection (HPLC‐MS/MS). […] The lower limit of quantification (LLQ) was 0.5 ng/mL, using a 50 μL aliquot of K2EDTA acidified plasma. The higher limit of quantification (HLQ) was 500 ng/mL. […]

entry-smiles	half-life, h
CC(C)C1=C2[C@H]3CC[C@@H]4[C@@]5(C)CC[C@H](OC(=O)CC(C)(C)C(=O)O)C(C)(C)[C@@H]5CC[C@@]4(C)[C@]3(C)CC[C@@]2([C@@H](O)CN(CCN(C)C)Cc2ccc(Cl)cc2)CC1=O	18.8

----------
Assay: Study 200912: single dose 100-200 mg, SDD versus nonmicronized API PiB, healthy subjects
Type: in vivo, human
Conditions: human, plasma, oral, 100 mg, single 100 mg SDD PiB, fasted, without ritonavir, Study 200912; geometric mean (95% CI)

entry-smiles	unit-annotation	Cmax
CC(C)C1=C2[C@H]3CC[C@@H]4[C@@]5(C)CC[C@H](OC(=O)CC(C)(C)C(=O)O)C(C)(C)[C@@H]5CC[C@@]4(C)[C@]3(C)CC[C@@]2([C@@H](O)CN(CCN(C)C)Cc2ccc(Cl)cc2)CC1=O	ng/mL	18.7

----------
Assay: Study 204953 Part 2: repeat dosing for 11 days with RTV QD or 200 mg BID unboosted
Type: in vivo, human
Settings: human, plasma, oral, 20 mg, Study day 1, 20 mg QD + RTV (PiB), Study 204953; geometric mean (95% CI)

entry-smiles	unit-annotation	Cmax
CC(C)C1=C2[C@H]3CC[C@@H]4[C@@]5(C)CC[C@H](OC(=O)CC(C)(C)C(=O)O)C(C)(C)[C@@H]5CC[C@@]4(C)[C@]3(C)CC[C@@]2([C@@H](O)CN(CCN(C)C)Cc2ccc(Cl)cc2)CC1=O	ng/mL	11.1

----------
Test: Study 204953 Part 2: repeat dosing for 11 days with RTV QD or 200 mg BID unboosted
Type: in vivo, human
Settings: human, plasma, oral, 200 mg, Study day 1, 200 mg QD + RTV (capsules), τ = 24 hours, Study 204953; median (range); read-out: Cτ

molecule	concentration at 24 h / ng/mL
CC(C)C1=C2[C@H]3CC[C@@H]4[C@@]5(C)CC[C@H](OC(=O)CC(C)(C)C(=O)O)C(C)(C)[C@@H]5CC[C@@]4(C)[C@]3(C)CC[C@@]2([C@@H](O)CN(CCN(C)C)Cc2ccc(Cl)cc2)CC1=O [GSK2838232]	40.1
